Data provenance: paper PMC6804079

# Test system: T. brucei B48
# assay-comment: microbe, parasite or virus in culture
# Assay type: cell-based, Trypanosoma brucei brucei
# protocol-conditions: Trypanosoma brucei, read-out: T. Brucei, EC50, B48
For each record, write down the corresponding pEC50.
Numbers only, as −log10 of the molar value.

>>> observed_measurement("CCCCCCCCC#Cc1cn([C@H]2C=C[C@@H](O)C2)c(=O)n([C@H]2C=C[C@@H](O)C2)c1=O")
4.83
>>> observed_measurement("CC(C)(C)c1ccc(C#Cc2cn([C@H]3C=C[C@@H](O)C3)c(=O)n([C@H]3C=C[C@@H](O)C3)c2=O)cc1")
4.97
>>> observed_measurement("N=C(N)c1ccc(OCCCCCOc2ccc(C(=N)N)cc2)cc1 [Pentamidine, reference compound]")
6.15
>>> observed_measurement("CCCCCCCCCCCCC#Cc1cn([C@H]2C=C[C@@H](O)C2)c(=O)n([C@H]2C=C[C@@H](O)C2)c1=O")
5.05
>>> observed_measurement("O=c1[nH]cc(F)c(=O)[nH]1 [5-Fluorouracil, reference compound]")
4.00

Respectfully, I request pEC50 for each entry included below.
1. CCCCCCC#Cc1cn([C@H]2C=C[C@@H](O)C2)c(=O)n([C@H]2C=C[C@@H](O)C2)c1=O
2. CCCCCCCCCCC#Cc1cn([C@H]2C=C[C@@H](O)C2)c(=O)n([C@H]2C=C[C@@H](O)C2)c1=O
3. CCCCCc1ccc(C#Cc2cn([C@H]3C=C[C@@H](O)C3)c(=O)n([C@H]3C=C[C@@H](O)C3)c2=O)cc1
4. O=c1c(C#CCO)cn([C@H]2C=C[C@@H](O)C2)c(=O)n1[C@H]1C=C[C@@H](O)C1

4.75
5.40
4.96
4.11

----------
# System: U-937 cells
# assay-comment: U-937 cytotoxicity (XTT)
# Assay type: cell-based
# protocol-conditions: 6 days incubation
For each record, write down the corresponding U-937 Cells TC50.
One number for each entry, in µM.

Below, each entry is followed by its recorded U-937 Cells TC50 result.
>>> observed_measurement("CC(C)(C)c1ccc(C#Cc2cn([C@H]3C=C[C@@H](O)C3)c(=O)n([C@H]3C=C[C@@H](O)C3)c2=O)cc1")
22.5
>>> observed_measurement("CCCCCCC#Cc1cn([C@H]2C=C[C@@H](O)C2)c(=O)n([C@H]2C=C[C@@H](O)C2)c1=O")
73.8
>>> observed_measurement("O=C(NCC#Cc1cn([C@H]2C=C[C@@H](O)C2)c(=O)n([C@H]2C=C[C@@H](O)C2)c1=O)C(F)(F)F")
78.0

Respectfully, I request U-937 Cells TC50 for each entry included below.
1. CCCCCc1ccc(C#Cc2cn([C@H]3C=C[C@@H](O)C3)c(=O)n([C@H]3C=C[C@@H](O)C3)c2=O)cc1
2. CCOC(=O)C#Cc1cn([C@H]2C=C[C@@H](O)C2)c(=O)n([C@H]2C=C[C@@H](O)C2)c1=O
3. CCCCCCCCC#Cc1cn([C@H]2C=C[C@@H](O)C2)c(=O)n([C@H]2C=C[C@@H](O)C2)c1=O
4. CCCC#Cc1cn([C@H]2C=C[C@@H](O)C2)c(=O)n([C@H]2C=C[C@@H](O)C2)c1=O
5. CCCCCCCCCCC#Cc1cn([C@H]2C=C[C@@H](O)C2)c(=O)n([C@H]2C=C[C@@H](O)C2)c1=O
6. O=c1c(C#Cc2ccccc2)cn([C@H]2C=C[C@@H](O)C2)c(=O)n1[C@H]1C=C[C@@H](O)C1
7. CCCCCCCCCCCCC#Cc1cn([C@H]2C=C[C@@H](O)C2)c(=O)n([C@H]2C=C[C@@H](O)C2)c1=O

1: 17.3; 2: 21.6; 3: 2.2; 4: 88.5; 5: 22.1; 6: 166.2; 7: 66.3

----------
For each record, write down the corresponding MIC.
# Test system: M. tuberculosis MS-115
# assay-comment: microbe, parasite or virus in culture
# Type: cell-based
# protocol-conditions: Mycobacterium tuberculosis, MS115, read-out: M. Tuberculosis MS-115 MIC
Numbers only, in µg/mL.

>>> observed_measurement("CCCCCCCCC#Cc1cn([C@H]2C=C[C@@H](O)C2)c(=O)n([C@H]2C=C[C@@H](O)C2)c1=O [Compound 3]")
50

Now examine the next entry.
# MIC (compound: C[C@H]1COc2c(N3CCN(C)CC3)c(F)cc3c(=O)c(C(=O)O)cn1c23 [Levofloxacin, reference compound] ) is 1.5

----------
For each record, write down the corresponding MIC.
# System: M. tuberculosis H37Rv
# assay-comment: microbe, parasite or virus in culture
# Format: cell-based
# protocol-conditions: Mycobacterium tuberculosis, control drugs at critical concentrations
One number for each entry, in mg/L.

>>> observed_measurement("CO[C@H]1/C=C/O[C@@]2(C)Oc3c(C)c(O)c4c(O)c(c(/C=N/N5CCN(C)CC5)c(O)c4c3C2=O)NC(=O)/C(C)=C\\C=C\\[C@H](C)[C@H](O)[C@@H](C)[C@@H](O)[C@@H](C)[C@H](OC(C)=O)[C@@H]1C [Rifampicin, reference compound]")
1
>>> observed_measurement("C[C@H]1COc2c(N3CCN(C)CC3)c(F)cc3c(=O)c(C(=O)O)cn1c23 [Levofloxacin, reference compound]")
1.5

Now examine the next entry.
Item: CCCCCCCCCCCCC#Cc1cn([C@H]2C=C[C@@H](O)C2)c(=O)n([C@H]2C=C[C@@H](O)C2)c1=O | System: M. tuberculosis H37Rv | MIC: 50

----------
For each record, write down the corresponding MIC.
# Tested on: M. tuberculosis H37Rv
# assay-comment: microbe, parasite or virus in culture
# Type: cell-based
# protocol-conditions: Mycobacterium tuberculosis, control drugs at critical concentrations
Numbers only, in µg/mL.

>>> observed_measurement("CCCCCCCCC#Cc1cn([C@H]2C=C[C@@H](O)C2)c(=O)n([C@H]2C=C[C@@H](O)C2)c1=O")
50

Now examine the next entry.
# MIC (compound: NNC(=O)c1ccncc1 [Isoniazid, reference compound] ) is 0.1

----------
# System: M. tuberculosis MS-115
# assay-comment: microbe, parasite or virus in culture
# Format: cell-based
# protocol-conditions: Mycobacterium tuberculosis, MS115, read-out: M. Tuberculosis MS-115 MIC
For each record, write down the corresponding MIC.

>>> observed_measurement("CO[C@H]1/C=C/O[C@@]2(C)Oc3c(C)c(O)c4c(O)c(c(/C=N/N5CCN(C)CC5)c(O)c4c3C2=O)NC(=O)/C(C)=C\\C=C\\[C@H](C)[C@H](O)[C@@H](C)[C@@H](O)[C@@H](C)[C@H](OC(C)=O)[C@@H]1C [Rifampicin, reference compound]")
"> 50 µg/mL"
>>> observed_measurement("NNC(=O)c1ccncc1 [Isoniazid, reference compound]")
"> 100 µg/mL"

Now examine the next entry.
# MIC (compound: CCCCCCCCCCCCC#Cc1cn([C@H]2C=C[C@@H](O)C2)c(=O)n([C@H]2C=C[C@@H](O)C2)c1=O [Compound 1] ) is > 50 µg/mL

----------
# Test system: M. tuberculosis H37Rv
# assay-comment: microbe, parasite or virus in culture
# Type: cell-based
# protocol-conditions: Mycobacterium tuberculosis, control drugs at critical concentrations
For each record, write down the corresponding MIC.

Below, each entry is followed by its recorded MIC result.
>>> observed_measurement("CCCCCCCCCCC#Cc1cn([C@H]2C=C[C@@H](O)C2)c(=O)n([C@H]2C=C[C@@H](O)C2)c1=O [Compound 2]")
"> 50 µg/mL"
>>> observed_measurement("CCCCCc1ccc(C#Cc2cn([C@H]3C=C[C@@H](O)C3)c(=O)n([C@H]3C=C[C@@H](O)C3)c2=O)cc1 [Compound 8]")
"> 50 µg/mL"

# MIC (compound: CCCCCCC#Cc1cn([C@H]2C=C[C@@H](O)C2)c(=O)n([C@H]2C=C[C@@H](O)C2)c1=O [Compound 4] ) is > 50 µg/mL
